# protocol.details: yeast display, Sf9 membrane polyspecificity reagent, FACS + sequencing; frameworks hold sequencing errors
property: polyreactivity (PSR sort gate)

The cases that follow already have their polyreactivity (PSR sort gate) on record.
QVQLVESGGGLVQAGGSLRLSCADSGFILGANDMGWYRQAPGKERELVAAIRSSDGTTYYADSVKGRFTISRDNAKNTVYLQMNSLKPEDTAVYYCAADWRLLYDYWGQGTQVTVSS : high polyreactivity
QVQLVESGGGLVQAGGSLRLTCAASGYIFYRYALGWYRKAPGKERELVAAINSGGSTYYADSVKGRFTISRDNAKNTVYLQMNSLKPEDTAVYYCNVLGWWHVWVYDYWGQGTQVTVSS : high polyreactivity
QVQLVESGGGLVQAGGSLRLSCAASGFIFFRYAMGWYRQAPGKERELVAAISRTGGRTYYADSVKGRFTISRDNAKNTVYLQMNSLKPEDTAVYYCAARRHSRVKYRDYWGQGTQVTVSS : high polyreactivity
QVHLVESGGGLVQAGGSLRLSCAASGFTFPHYAMGWYRQAPGKERELVAAISFSGGRTYYADSVKGRFTISRDHSKNTVYVQMNSLKPEDTAVYYCNVPYYSFRELSYYYWGQGTQVTVSS : high polyreactivity
QVQLLESGGGLVQAGGSLRLSCAASGSTFTNYAMGWYRQAPGKERELVAAITSGGSTYYADSVKGRCTISRDNAKNTVYLQMNSLKPEDTAVYYCNAVYFSEYDSWGQGTLVTVSS : low polyreactivity

Lookup: Request the reported polyreactivity (PSR sort gate) associated with QVQLVESGGGLVQAGGSLRLSCAASGRTFLYNAMGWYRQAPGKERELVAAISWSGGSTYYADSVKGRFTISRDNAKNTVYLQMNSLKPEDTAVYYCAATGRRSGFYYWGQGTQVTVSS
Found: high polyreactivity

Lookup: Request the reported polyreactivity (PSR sort gate) associated with QVQLVESGGGLDQAGGSLRLICAASGGTSQRYVMGWYRQAPGKERELVAAITKSGVRTYYADSVKGRFTISRDNAKNKVYLQMNSLKPEDTAVYYCAAKTPTKDRGSDFDYWGQGTQVTVSS
Found: high polyreactivity

Lookup: Request the reported polyreactivity (PSR sort gate) associated with QVQLVESGGCLVQAGGSLRLSCAASGRTFYAYAMGWYRQAPGKERELVAAISWRGGDTYYADSVKGRFTISRDNAKNTVYLQMNSLKPEETGVYYCAKYLSRQSGDGEYDYWGQGTQVTVSS
Found: low polyreactivity

====

# protocol.details: yeast display, Sf9 membrane polyspecificity reagent, FACS + sequencing; frameworks hold sequencing errors
property: polyreactivity (PSR sort gate)

QVQLVESGGGLVQAGGSLRLSCAASGFIFANYGMGWYRQAPGKERELVAAISSGGRTYYADSVKARFTISRDNAKNTVYFQMNSLQPEDTAVYYCAAVVRRYNAEDYWGQGTQVTVSS : high polyreactivity
QVQLVESGGGLVQAGGSLRLSCAASGRIFGKYMGWYRQAPGKERELVAAISRNGGRTYYADSVKGRFTISRDNAKNTVYLQMNCLNPEDTAVYYCAAASSRYDYWGQGTQVTVSS : high polyreactivity

====

# protocol.details: yeast display, Sf9 membrane polyspecificity reagent, FACS + sequencing; frameworks hold sequencing errors
property: polyreactivity (PSR sort gate)

QVQLVESGGGLVQAGGSLRLSCAASGSTFNDYAMGWYRQAPGKERELVASIRYSGGGTYYADSVKGRFTISRDNAKNTVYLQMNSLKPEDTAVYYCAKDTHLLNEHSGTSREYDYWGQGTQVTVSS : low polyreactivity
QVQLVESGGGLVQAGGSLRLICAASGSTTFYAKGWYRPAPGKEWELVATISSSAGSTYYADSVKGRFTISRDNAKNNVYLEMNSLIPEDTAVFYCDAKYSQLRQYYRLDYWGQGTQVTVSS : low polyreactivity
